The following compounds are listed with their measured activation at 1 µM values.
- test_target: GnRHR (Homo sapiens)
- Construct: host or cells: CHO-K1 (CHO-K1/GnRHR/Ga15)
- experimental_details: Calcium assay in CHO-K1 cells (Genscript), FLIPR
- Assay type: cell-based
- measurement_conditions: CHO-K1/GnRHR/Ga15 cells, relative to agonist control, read-out: GNRHR Stimulation at 1 μM
Non-standard residues stand in square brackets, D forms with d. Residues, ends and D or L forms follow the SMILES beside them. *: point of attachment. dHis(τ-Bn) = N[C@H](Cc1cn(Cc2ccccc2)cn1)C(=O)O; pGlu = O=C1CC[C@@H](C(=O)O)N1; tBu = CC(C)(C)*
Report as a plain number; the unit % is understood.

Some entries whose results are on file:
compound	unit_text	result_number
CCNC(=O)[C@@H]1CCCN1C(=O)[C@H](CCCNC(=N)N)NC(=O)[C@H](Cc1c[nH]c2ccccc12)NC(=O)[C@@H](COC(C)(C)C)NC(=O)[C@H](Cc1c[nH]cn1)NC(=O)[C@H](CO)NC(=O)[C@H](Cc1c[nH]c2ccccc12)NC(=O)[C@H](Cc1c[nH]cn1)NC(=O)[C@@H]1CCC(=O)N1 [Compound 10] ([pGlu]HWSH[dS](tBu)WRP-NHEt)	%	81
CCNC(=O)[C@@H]1CCCN1C(=O)[C@H](Cc1ccc(O)cc1)NC(=O)[C@H](Cc1c[nH]c2ccccc12)NC(=O)[C@@H](CC(C)C)NC(=O)[C@H](Cc1ccc(O)cc1)NC(=O)[C@H](CO)NC(=O)[C@H](Cc1c[nH]c2ccccc12)NC(=O)[C@H](Cc1c[nH]cn1)NC(=O)[C@@H]1CCC(=O)N1 [Compound 49] ([pGlu]HWSY[dL]WYP-NHEt)	%	77
CCNC(=O)[C@@H]1CCCN1C(=O)[C@H](Cc1ccc(O)cc1)NC(=O)[C@H](CC(C)C)NC(=O)[C@@H](Cc1cn(Cc2ccccc2)cn1)NC(=O)[C@H](Cc1c[nH]cn1)NC(=O)[C@H](CO)NC(=O)[C@H](Cc1c[nH]c2ccccc12)NC(=O)[C@H](Cc1c[nH]cn1)NC(=O)[C@@H]1CCC(=O)N1 [Compound 61] ([pGlu]HWSH[dHis(τ-Bn)]LYP-NHEt)	%	112
CCNC(=O)[C@@H]1CCCN1C(=O)[C@H](CCCNC(=N)N)NC(=O)[C@H](Cc1c[nH]c2ccccc12)NC(=O)[C@@H](Cc1cn(Cc2ccccc2)cn1)NC(=O)[C@H](Cc1ccc(O)cc1)NC(=O)[C@H](CO)NC(=O)[C@H](Cc1c[nH]c2ccccc12)NC(=O)[C@H](Cc1c[nH]cn1)NC(=O)[C@@H]1CCC(=O)N1 [Compound 67] ([pGlu]HWSY[dHis(τ-Bn)]WRP-NHEt)	%	117

Query string: Entry CCNC(=O)[C@@H]1CCCN1C(=O)[C@H](CCCNC(=N)N)NC(=O)[C@H](Cc1c[nH]c2ccccc12)NC(=O)[C@@H](COC(C)(C)C)NC(=O)[C@H](Cc1ccc(O)cc1)NC(=O)[C@H](CO)NC(=O)[C@H](Cc1c[nH]c2ccccc12)NC(=O)[C@H](Cc1c[nH]cn1)NC(=O)[C@@H]1CCC(=O)N1 [Compound 8] ([pGlu]HWSY[dS](tBu)WRP-NHEt) has what activation at 1 µM?
Result string: 86

Query string: Now consider CC(C)C[C@H](NC(=O)[C@@H](Cc1c[nH]c2ccccc12)NC(=O)[C@H](Cc1c[nH]cn1)NC(=O)[C@H](CO)NC(=O)[C@H](Cc1c[nH]c2ccccc12)NC(=O)[C@H](Cc1c[nH]cn1)NC(=O)[C@@H]1CCC(=O)N1)C(=O)N[C@@H](Cc1ccc(O)cc1)C(=O)N1CCC[C@H]1C(=O)NCC(N)=O [Compound 16] ([pGlu]HWSH[dW]LYPG-NH2) and answer again.
Result string: 76

====

- experimental_details: Solubility in PBS (LC/UV AUC trend)
- measurement_conditions: PBS pH 7.4, 0.2 mg/ml; rating 1 (good) to 5 (poor)
Non-standard residues stand in square brackets, D forms with d. Residues, ends and D or L forms follow the SMILES beside them. pGlu = O=C1CC[C@@H](C(=O)O)N1
observed_property: Solubility grading
// print number alone

molecule	Solubility grading
CCNC(=O)[C@@H]1CCCN1C(=O)[C@H](CCCNC(=N)N)NC(=O)[C@H](CC(C)C)NC(=O)[C@@H](COC(C)(C)C)NC(=O)[C@H](Cc1ccc(O)cc1)NC(=O)[C@H](CO)NC(=O)[C@H](Cc1c[nH]c2ccccc12)NC(=O)[C@H](Cc1cnc[nH]1)NC(=O)[C@@H]1CCC(=O)N1 [Buserelin acetate, reference compound]	1

Okay, now this molecule:
Query string: Entry NC(=O)CNC(=O)[C@@H]1CCCN1C(=O)[C@H](Cc1ccc(O)cc1)NC(=O)[C@H](Cc1c[nH]c2ccccc12)NC(=O)[C@@H](Cc1c[nH]c2ccccc12)NC(=O)[C@H](Cc1ccc(O)cc1)NC(=O)[C@H](CO)NC(=O)[C@H](Cc1c[nH]c2ccccc12)NC(=O)[C@H](Cc1c[nH]cn1)NC(=O)[C@@H]1CCC(=O)N1 [Compound 64] ([pGlu]HWSY[dW]WYPG-NH2) has what Solubility grading?
Result string: 5

====

- test_target: GnRHR (Homo sapiens)
- Construct: host or cells: CHO-K1 (CHO-K1/GnRHR/Ga15)
- Sequence (P30968 1-328): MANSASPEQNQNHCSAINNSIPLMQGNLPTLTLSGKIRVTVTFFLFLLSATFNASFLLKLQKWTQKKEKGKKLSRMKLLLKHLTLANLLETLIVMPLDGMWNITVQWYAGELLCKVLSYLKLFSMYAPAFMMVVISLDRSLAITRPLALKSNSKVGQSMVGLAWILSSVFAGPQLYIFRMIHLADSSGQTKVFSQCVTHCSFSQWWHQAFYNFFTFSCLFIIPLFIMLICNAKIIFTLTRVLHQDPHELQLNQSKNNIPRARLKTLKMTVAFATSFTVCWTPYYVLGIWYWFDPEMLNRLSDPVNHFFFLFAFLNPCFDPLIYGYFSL
- experimental_details: Calcium assay in CHO-K1 cells (Genscript), FLIPR
- Type: cell-based
- measurement_conditions: CHO-K1/GnRHR/Ga15 cells, relative to agonist control, read-out: GNRHR Stimulation at 1 μM
Non-standard residues stand in square brackets, D forms with d. Residues, ends and D or L forms follow the SMILES beside them. *: point of attachment. dHis(τ-Bn) = N[C@H](Cc1cn(Cc2ccccc2)cn1)C(=O)O; d2Nal = N[C@H](Cc1ccc2ccccc2c1)C(=O)O; pGlu = O=C1CC[C@@H](C(=O)O)N1; tBu = CC(C)(C)*
observed_property: activation at 1 µM (%)
Report as a plain number; the unit % is understood.

Some entries whose results are on file:
molecule	unit_text	activation at 1 µM
CCNC(=O)[C@@H]1CCCN1C(=O)[C@H](Cc1ccc(O)cc1)NC(=O)[C@H](Cc1c[nH]c2ccccc12)NC(=O)[C@@H](Cc1cn(Cc2ccccc2)cn1)NC(=O)[C@H](Cc1c[nH]cn1)NC(=O)[C@H](CO)NC(=O)[C@H](Cc1c[nH]c2ccccc12)NC(=O)[C@H](Cc1c[nH]cn1)NC(=O)[C@@H]1CCC(=O)N1 [Compound 63] ([pGlu]HWSH[dHis(τ-Bn)]WYP-NHEt)	%	77
CCNC(=O)[C@@H]1CCCN1C(=O)[C@H](Cc1ccc(O)cc1)NC(=O)[C@H](Cc1c[nH]c2ccccc12)NC(=O)[C@@H](COC(C)(C)C)NC(=O)[C@H](Cc1c[nH]cn1)NC(=O)[C@H](CO)NC(=O)[C@H](Cc1c[nH]c2ccccc12)NC(=O)[C@H](Cc1c[nH]cn1)NC(=O)[C@@H]1CCC(=O)N1 [Compound 13] ([pGlu]HWSH[dS](tBu)WYP-NHEt)	%	87
N=C(N)NCCC[C@H](NC(=O)[C@H](Cc1c[nH]c2ccccc12)NC(=O)[C@@H](Cc1ccc2ccccc2c1)NC(=O)[C@H](Cc1c[nH]cn1)NC(=O)[C@H](CO)NC(=O)[C@H](Cc1c[nH]c2ccccc12)NC(=O)[C@H](Cc1c[nH]cn1)NC(=O)[C@@H]1CCC(=O)N1)C(=O)N1CCC[C@H]1C(=O)NCC(N)=O [Compound 27] ([pGlu]HWSH[d2Nal]WRPG-NH2)	%	108

Query string: Entry CCNC(=O)[C@@H]1CCCN1C(=O)[C@H](Cc1ccc(O)cc1)NC(=O)[C@H](Cc1c[nH]c2ccccc12)NC(=O)[C@@H](COC(C)(C)C)NC(=O)[C@H](Cc1ccc(O)cc1)NC(=O)[C@H](CO)NC(=O)[C@H](Cc1c[nH]c2ccccc12)NC(=O)[C@H](Cc1c[nH]cn1)NC(=O)[C@@H]1CCC(=O)N1 [Compound 12] ([pGlu]HWSY[dS](tBu)WYP-NHEt) has what activation at 1 µM?
Result string: 80

Query string: Now consider CC(C)C[C@H](NC(=O)[C@@H](Cc1ccc2ccccc2c1)NC(=O)[C@H](Cc1c[nH]cn1)NC(=O)[C@H](CO)NC(=O)[C@H](Cc1c[nH]c2ccccc12)NC(=O)[C@H](Cc1c[nH]cn1)NC(=O)[C@@H]1CCC(=O)N1)C(=O)N[C@@H](CCCNC(=N)N)C(=O)N1CCC[C@H]1C(=O)NCC(N)=O [Compound 23] ([pGlu]HWSH[d2Nal]LRPG-NH2) and answer again.
Result string: 106

Query string: Now consider NC(=O)CNC(=O)[C@@H]1CCCN1C(=O)[C@H](Cc1ccc(O)cc1)NC(=O)[C@H](Cc1c[nH]c2ccccc12)NC(=O)[C@@H](Cc1c[nH]c2ccccc12)NC(=O)[C@H](Cc1c[nH]cn1)NC(=O)[C@H](CO)NC(=O)[C@H](Cc1c[nH]c2ccccc12)NC(=O)[C@H](Cc1c[nH]cn1)NC(=O)[C@@H]1CCC(=O)N1 [Compound 65] ([pGlu]HWSH[dW]WYPG-NH2) and answer again.
Result string: 72
